Consider the following compounds and their measured log10 of DC50 readings.
Biological target: IRAK4 (Homo sapiens)
Construct: endogenous in cells; host or cells: Karpas299
Test: IRAK4 Degradation Assay (Karpas299, HTRF/TR-FRET)
Format: cell-based
Details: Karpas-299 cells, 24 h treatment; read-out: IRAK4 in Karpas-299 (24 h) DC50
value_kind: log10 of DC50 (log10 of the value in nM)

compound=NC(=O)c1nn([C@H]2CC[C@H](N3CCN(C(=O)C4CN(c5cc(F)c([C@H]6CCC(=O)NC6=O)c(F)c5)C4)CC3)CC2)cc1NC(=O)c1coc(-c2ccnc(NCC(F)(F)F)c2)n1 value_kind="log10 of DC50" numeric_value=0.20
compound=COC[C@@H]1CN(CC2CN(c3cc(F)c([C@H]4CCC(=O)NC4=O)c(F)c3)C2)CCN1[C@H]1CC[C@H](n2cc3cc(NC(=O)c4ccc5cc(C#N)cnn45)c(C(C)(C)O)cc3n2)CC1 value_kind="log10 of DC50" numeric_value=-0.15
compound=CC(C)(O)c1cc2nn([C@H]3CC[C@H](N4CCN([C@H]5CCN(c6ccc(N7CCC(=O)NC7=O)cc6)C5)CC4)CC3)cc2cc1NC(=O)c1ccc2cc(C#N)cnn12 value_kind="log10 of DC50" numeric_value=1.20
compound="CC(C)(O)c1cc2nn([C@H]3CC[C@H](N4CCN(C5CCN(c6ccc(C7CCC(=O)NC7=O)cc6)CC5)CC4)CC3)cc2cc1NC(=O)c1ccc2cc(C#N)cnn12 (some centres unmarked)" value_kind="log10 of DC50" numeric_value=0.45
compound=NC(=O)c1nn([C@H]2CC[C@H](N3CCN(C(=O)C4CN(c5ccc(N6CCC(=O)NC6=O)cc5)C4)CC3)CC2)cc1NC(=O)c1coc(-c2ccnc(NCC(F)(F)F)c2)n1 value_kind="log10 of DC50" numeric_value=0.32

----------
Biological target: IRAK4 (Homo sapiens, UniProt Q9NWZ3)
Construct: endogenous in cells; host or cells: Karpas299
Sequence (Q9NWZ3 1-460): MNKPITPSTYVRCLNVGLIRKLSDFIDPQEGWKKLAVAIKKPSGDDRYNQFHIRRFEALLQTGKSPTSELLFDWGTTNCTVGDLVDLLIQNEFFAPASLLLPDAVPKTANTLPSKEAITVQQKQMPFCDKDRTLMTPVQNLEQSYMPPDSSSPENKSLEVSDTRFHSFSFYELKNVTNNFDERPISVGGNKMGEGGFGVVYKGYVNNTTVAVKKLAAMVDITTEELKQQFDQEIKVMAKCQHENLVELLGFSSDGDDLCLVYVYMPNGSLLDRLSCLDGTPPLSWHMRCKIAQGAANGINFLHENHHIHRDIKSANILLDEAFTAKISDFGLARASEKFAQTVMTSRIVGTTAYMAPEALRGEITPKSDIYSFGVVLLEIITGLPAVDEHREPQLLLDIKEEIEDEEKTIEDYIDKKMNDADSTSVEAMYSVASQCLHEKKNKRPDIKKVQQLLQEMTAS
Assay: IRAK4 Degradation Assay with Human Serum (Karpas299, HTRF/TR-FRET)
Format: cell-based
Details: Karpas-299 in human serum, 24 hrs treatment; read-out: IRAK4 degradtion with human serum assay DC50
Method: IRAK4 degradation was measured using a TR-FRET-based method (Degorce, François, et al. Current chemical genomics. 2009, 3: 22). […] IRAK4 level was quantitated using the HTRF kit as described by the manufacturer manual (Cisbio). FRET signals were measured using a PHERAstar FSX reader (BMG Labtech). […] The inhibition (degradation) percentage of the compound was calculated by the following equation: […]
Consider the following compounds and their measured DC50 readings.
value_kind: DC50

compound=C[C@@H]1CN(C(=O)C2CN(c3cc(F)c(N4CCC(=O)NC4=O)c(F)c3)C2)CCN1[C@H]1CC[C@H](n2cc3cc(NC(=O)c4ccc5cc(C#N)cnn45)c(C(C)(C)O)cc3n2)CC1 study_system="IRAK4 (Homo sapiens, UniProt Q9NWZ3)" value_kind=DC50 result="16 nM"
compound=COc1cc2nn([C@H]3CC[C@H](N4CCN(C5CCN(c6cc(F)c([C@H]7CCC(=O)NC7=O)c(F)c6)CC5)CC4)CC3)cc2cc1NC(=O)c1ccc2cc(C#N)cnn12 study_system="IRAK4 (Homo sapiens, UniProt Q9NWZ3)" value_kind=DC50 result="13 nM"
compound=C[C@H]1CN([C@H]2CC[C@H](n3cc4cc(NC(=O)c5ccc6cc(C#N)cnn56)c(C(C)(C)O)cc4n3)CC2)CCN1C(=O)C1CN(c2cc(F)c([C@H]3CCC(=O)NC3=O)c(F)c2)C1 study_system="IRAK4 (Homo sapiens, UniProt Q9NWZ3)" value_kind=DC50 result="15 nM"
compound=COC[C@@H]1CN(CCc2cc(F)c([C@H]3CCC(=O)NC3=O)c(F)c2)CCN1[C@H]1CC[C@H](n2cc3cc(NC(=O)c4ccc5cc(C#N)cnn45)c(C(C)(C)O)cc3n2)CC1 study_system="IRAK4 (Homo sapiens, UniProt Q9NWZ3)" value_kind=DC50 result="15 nM"
compound="CC(C)(O)c1cc2nn([C@H]3CC[C@H](N4CCN([C@@H]5CCN(c6cc(F)c(C7CCC(=O)NC7=O)c(F)c6)C5)CC4)CC3)cc2cc1NC(=O)c1ccc2cc(C#N)cnn12 (some centres unmarked)" study_system="IRAK4 (Homo sapiens, UniProt Q9NWZ3)" value_kind=DC50 result="34 nM"
